- methodDescription: Toxicity liver stage against HepG2, at 10uM
- Assay type: cell-based
- Design: test concentration 10 uM, cell line HepG2-A16-CD81EGFP
- conditionContext: human, HepG2-A16-CD81EGFP cells; read-out: INHIBITION
What cytotoxicity at 10 µM was measured for each of the following?

Please give the measured cytotoxicity at 10 µM for this molecule: O=C(c1ccno1)N1CCO[C@@H]2CC(COCc3ccccn3)C[C@H]21 (stereo partly specified)
-103%

Record: Cc1ccc(CN2Cc3nnn(C)c3C(COCc3ccccc3)C2)o1 (stereo unspecified)
5.44%

Now give it for CCCS(=O)(=O)N1CCC2(CC1)CN(C(=O)N(C)C)c1ccccc12 too.
-108%

How about this molecule: CN(Cc1ccsc1)C(=O)Nc1cccc(N2CCOC2=O)c1
-12.9%

Here is the next molecule: O=C1CC(c2ccncc2)C2(CCN(CC3CC3)CC2)N1 (stereo unspecified)
11.3%

Now give it for Cc1nc(N(C)C)nc(C)c1NS(=O)(=O)c1ccccc1Cl too.
4.22%
